Attribute: mass density
- measurement_parameters: 298.15 K; 101.33 kPa; Liquid; Vibrating tube method
Give just the number in kg/m3; leave the unit off.

[[record]]
substance_smiles = "CCC(C)=O"
endpoint_value = 799.828

[[record]]
substance_smiles = "ClC(Cl)C(Cl)Cl"
endpoint_value = 1585.87

[[record]]
substance_smiles = "CCCCCC(C)=O"
endpoint_value = 811.198

[[record]]
substance_smiles = "O=C1CCCCC1"
endpoint_value = 942.243


Field: next compound
Query: Quick one: mass density for `ClCCCl` ?
Result: 1245.49

====

Attribute: mass density
- measurement_parameters: 313.15 K; 101.33 kPa; Liquid; Vibrating tube method
Give just the number in kg/m3; leave the unit off.

Query: Quick one: mass density for CCCCCC(C)=O [2-heptanone] ?
Result: 798.222

Query: Would you mind doing O=C1CCCCC1 [cyclohexanone] as well?
Result: 928.795

Query: Would you mind doing ClCCCl [1,2-dichloroethane] as well?
Result: 1223.46

Query: Would you mind doing CCC(C)=O [butanone] as well?
Result: 783.946

Query: Would you mind doing ClC(Cl)C(Cl)Cl [1,1,2,2-tetrachloroethane] as well?
Result: 1562.45
